Sourced from the supplement of paper PMC6555819

System: PPARg:RXRa DBDmut IVT, anti-RXR (DBD mutation: RXRa K156A/R161A, NR concentration 270 nM, RXRa partner concentration 90 nM)
METHOD_NOTES: PBM binding z-score (relative to random genomic background probes); higher = stronger binding; sequences stand for … in GC…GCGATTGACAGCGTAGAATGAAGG
Recorded PBM binding z-score for the following sequences
Form rule: numeric answer, no unit written next to it.

RESIDUE_SEQUENCE: ATCTCTAGGTAACAAGATCAGTGAAAGAGAGGAC
PBM binding z-score: 3.03
--
RESIDUE_SEQUENCE: AATACAGGGTCACTAGCCCAGAGTAGGTACGAAT
PBM binding z-score: 2.81
--
RESIDUE_SEQUENCE: GCTCGGAGGACAAGGTCAGTGCTTTGTCCGTAGA
PBM binding z-score: -0.0896

Prompt line: Hello, please tell me recorded PBM binding z-score for this one: TCGAGTAGGCTACCAATGGGGCATTCAGCTTTCT
Response line: 1.55

Prompt line: Look up PBM binding z-score of CCTGCTACGTCAATGGTCAGCTAAAGCAGCTCGC and report it.
Response line: 0.218

Prompt line: State its PBM binding z-score: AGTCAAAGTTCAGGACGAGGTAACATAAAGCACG
Response line: -0.187

Prompt line: Write down PBM binding z-score measured for item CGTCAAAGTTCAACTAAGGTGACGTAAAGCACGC
Response line: 0.538

Prompt line: Please give measured PBM binding z-score of the following entry: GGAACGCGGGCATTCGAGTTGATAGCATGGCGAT
Response line: -0.393

Prompt line: For the sequence AGAATGAGGTTATTCGTAGATCAGGGAAGAAAGT , give its reported PBM binding z-score.
Response line: 2.54

Prompt line: Please supply the value of reported PBM binding z-score for the item GCTATTAGTTGAAAGGGCAACAGAATGATTCTCG
Response line: 0.52

Prompt line: Identify measured PBM binding z-score corresponding to CCTAGCATGCCAGGGTCACTCAAGCATTTCGCTT
Response line: -0.246

---

Tested on: LXRa:RXRa (NR concentration 270 nM, RXRa partner concentration 90 nM)
METHOD_NOTES: PBM binding z-score (relative to random genomic background probes); higher = stronger binding; sequences stand for … in GC…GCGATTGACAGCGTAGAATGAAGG
Please enter YES where PBM binding z-score is greater than or equal to 0.7, and NO where it is lower.

A selection of reference data follows.
RESIDUE_SEQUENCE: GCTAGCTGGTCAGTAAAAGGTCACACACCGGTCG
CLASS_ASSIGNMENT: YES

RESIDUE_SEQUENCE: TCAGACAGGTCAAGGTAACTCAGGTACGCAGTCG
CLASS_ASSIGNMENT: YES

RESIDUE_SEQUENCE: TCTCGTTGGTCACGGAGGTCACACACGACGGGTA
CLASS_ASSIGNMENT: YES

RESIDUE_SEQUENCE: ACTATTGGTTGAGACGAGGGCAACCGATAGGTTG
CLASS_ASSIGNMENT: NO

RESIDUE_SEQUENCE: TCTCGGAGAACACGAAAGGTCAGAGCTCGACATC
CLASS_ASSIGNMENT: YES

Prompt line: Confirm if PBM binding z-score reported for the sequence CCTGCTAGGTCAATGGTCAGCCAAAGCAGCTCGC is 0.7 or above.
Response line: YES

Prompt line: Say whether TCATGTAGATCAAAGGTTAAGAAAGCCGAAGCCT shows PBM binding z-score of 0.7 or more.
Response line: YES

Prompt line: Could you please find out whether TCATATAGGTAAAAGGTGAAAGTTGGTGTGGTAA has PBM binding z-score that meets 0.7 or exceeds it?
Response line: YES

Prompt line: For this sequence, is measured PBM binding z-score 0.7 or higher? GGAACGAGGGCATTCGAATTGATAGCATGGCGAT
Response line: NO

Prompt line: Answer whether PBM binding z-score of TCTTGTAGATCAGCAGGGTAAGAAAGCTGGCCAA is greater than or equal to 0.7.
Response line: NO

---

System: PPARg:RXRa 270nM:90nM, anti-RXR (NR concentration 270 nM, RXRa partner concentration 90 nM)
METHOD_NOTES: PBM binding z-score (relative to random genomic background probes); higher = stronger binding; sequences stand for … in GC…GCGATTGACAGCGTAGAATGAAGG
Label True when PBM binding z-score is at or above 2; otherwise label False.

RESIDUE_SEQUENCE: AGAATGAGGTTCTACGTAGATCAGGGAAGAAAGT
CLASS_ASSIGNMENT: False
--
RESIDUE_SEQUENCE: GCATATAGGTAATACAAGGTGAAAGTCCGATTGT
CLASS_ASSIGNMENT: False
--
RESIDUE_SEQUENCE: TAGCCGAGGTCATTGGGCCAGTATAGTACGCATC
CLASS_ASSIGNMENT: True
--
RESIDUE_SEQUENCE: CGAACTTGGTCAGAACAGGACAGTGAAGGATGAT
CLASS_ASSIGNMENT: False
--
RESIDUE_SEQUENCE: GTACCAAGGTGAATAGGCCGTTGATGAGTAGGCG
CLASS_ASSIGNMENT: False

Prompt line: Would you say AGAATGAGGATAAGATCAGGGAAACAGAATACAT shows PBM binding z-score at minimum 2?
Response line: False

Prompt line: Entry TTACCAAGGTTAAGGTCGTTGATCCCTCTGTAGA : is its PBM binding z-score no less than 2?
Response line: True

Prompt line: Hello, I need to know if TCGAGTAAGTTACCAATGGGGCATTCAGCTTTCT has measured PBM binding z-score not below 2. Thanks!
Response line: False

Prompt line: I'd appreciate it if you could say whether ATCTCTAGGTGACCAAGTTCAGTGAATGCCGAAC has PBM binding z-score at least equal to 2.
Response line: False

Prompt line: Evaluate CCTACTGGTCCATTCAGAGGTCATTGATCATATG : PBM binding z-score at minimum 2?
Response line: False

Prompt line: Given the entry CCGCGTAGGTTATGGGGCATTCAGGCAACGGTGA , answer whether its PBM binding z-score meets or surpasses 2.
Response line: False

Prompt line: Given the entry ATATGTAGTTTAAGGGTCATTCAGGTTGGTTCGC , answer whether its PBM binding z-score meets or surpasses 2.
Response line: True

Prompt line: # bool: PBM binding z-score of CAAACTAGGTCAAAGGTCAATGTCGAGCCAACCA >= 2
Response line: True

Prompt line: In plain terms: is recorded PBM binding z-score at least 2 for TCGAGTAGGTTAGTCGGTGCATTCAGCCAACATA ?
Response line: False

Prompt line: Determine whether measured PBM binding z-score meets or exceeds 2 for CCTACTGGGCTACGAAAGGTCATTGATTCAGTGA
Response line: True

Prompt line: I'd appreciate it if you could say whether CCTGCTAGGTCATGGTCAGCTAGTCTACAGTATG has PBM binding z-score at least equal to 2.
Response line: True

Prompt line: Check the entry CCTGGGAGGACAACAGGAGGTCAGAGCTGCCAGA : does PBM binding z-score equal or exceed 2?
Response line: False

Prompt line: Decide: PBM binding z-score of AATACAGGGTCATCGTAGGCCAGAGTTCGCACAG >= 2?
Response line: True

Prompt line: Assess whether reported PBM binding z-score for ATCGAAAGGTCGTGAGGTGATTATACAGAAAGGC sits at 2 or higher.
Response line: True

Prompt line: Check the entry TAGCCCAGGTCATTGGGCCAGTATAGTACGCATC : does PBM binding z-score equal or exceed 2?
Response line: True

Prompt line: Hi, just wondering whether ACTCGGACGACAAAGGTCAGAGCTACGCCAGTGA shows PBM binding z-score of 2 or higher.
Response line: True

Prompt line: Given TCTTGTAGATCAGTAGAGGTTAAGAAAGTGCGCT , state whether its PBM binding z-score is at least 2.
Response line: False

Prompt line: State whether the measured PBM binding z-score reaches 2, counting equality as reaching it, for TCTTGTAGATCAGCAGGTTACGAAAGCTGGCCAA
Response line: False

Prompt line: Answer whether PBM binding z-score of GCTTGTAAATCAAGGTTAAGAAAGACTAAGCTAA is greater than or equal to 2.
Response line: False

Prompt line: Entry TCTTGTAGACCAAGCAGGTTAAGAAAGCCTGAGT : is its PBM binding z-score no less than 2?
Response line: False

Prompt line: Evaluate TCGAGTAGGTTACCAATGGGGCATCCAGCTTTCT : PBM binding z-score at minimum 2?
Response line: False

---

System: PXR:RXRa (NR concentration 270 nM, RXRa partner concentration 90 nM)
METHOD_NOTES: PBM binding z-score (relative to random genomic background probes); higher = stronger binding; sequences stand for … in GC…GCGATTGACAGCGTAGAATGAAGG
MEASURED_PARAMETER: PBM binding z-score

RESIDUE_SEQUENCE: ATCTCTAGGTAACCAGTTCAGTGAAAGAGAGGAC
MEASURED_TARGET: PXR:RXRa (NR concentration 270 nM, RXRa partner concentration 90 nM)
RESULT: 1.19
//
RESIDUE_SEQUENCE: TCTGCTAGGTCAGTTGGCCAGCTAACGAGCTGCC
MEASURED_TARGET: PXR:RXRa (NR concentration 270 nM, RXRa partner concentration 90 nM)
RESULT: -0.116
//
RESIDUE_SEQUENCE: TATGCTAGGTCAGTTGGTCAGCTAACGAGCTGCC
MEASURED_TARGET: PXR:RXRa (NR concentration 270 nM, RXRa partner concentration 90 nM)
RESULT: 0.247
//
RESIDUE_SEQUENCE: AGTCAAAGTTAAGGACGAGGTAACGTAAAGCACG
MEASURED_TARGET: PXR:RXRa (NR concentration 270 nM, RXRa partner concentration 90 nM)
RESULT: -0.127
//
RESIDUE_SEQUENCE: GATACAGGGTCCAGGCCAGAGTACGCGTATTGAT
MEASURED_TARGET: PXR:RXRa (NR concentration 270 nM, RXRa partner concentration 90 nM)
RESULT: -0.441
//
RESIDUE_SEQUENCE: TCGTGTAGATCAAGCAGGTTAAGAAAGCCTGAGT
MEASURED_TARGET: PXR:RXRa (NR concentration 270 nM, RXRa partner concentration 90 nM)
RESULT: 0.421
//
RESIDUE_SEQUENCE: TGATATAGGTAAATGCTAGGTGAAAGTCCGATCT
MEASURED_TARGET: PXR:RXRa (NR concentration 270 nM, RXRa partner concentration 90 nM)
RESULT: -0.09
//
RESIDUE_SEQUENCE: TCTTGTAGATCAGCAGGTTAAGACAGCTGGCCAA
MEASURED_TARGET: PXR:RXRa (NR concentration 270 nM, RXRa partner concentration 90 nM)
RESULT: 0.129

Prompt line: Answer with reported PBM binding z-score of AATACAGGGACACTAGGCCAGAGTAGGTACGAAT
Response line: -0.635

Prompt line: Provide only the value of recorded PBM binding z-score for AGAATGAGGGTATACGTAGATCAGGGAAGAAAGT
Response line: 0.14

Prompt line: Give reported PBM binding z-score value for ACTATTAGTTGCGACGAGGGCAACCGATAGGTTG
Response line: 0.401

Prompt line: Could you please provide reported PBM binding z-score for TTACCAAGGTGAAGGTCGTCGATCCCTCTGTAGA ? Thanks!
Response line: 1.24
